experiment: Cytotoxicity against human […] cells assessed as cell survival after 48 hrs by MTT assay; assay type: functional, cell-based
readout: IC50 (µM)
Number only, in µM; omit the unit.

Qu. May I ask what IC50 has been recorded for `C[C@H]1[C@H](C)CC[C@]2(C(=O)O)CC[C@]3(C)C(=CC[C@@H]4[C@@]5(C)Cc6c([nH]c7ccccc67)C(C)(C)[C@@H]5CC[C@]43C)[C@H]12` ?
Ans. 40.4

Qu. Check `C[C@H]1[C@H](C)CC[C@]2(C(=O)NCCCN(C)C)CC[C@]3(C)C(=CC[C@@H]4[C@@]5(C)Cc6c([nH]c7ccc(Cl)cc67)C(C)(C)[C@@H]5CC[C@]43C)[C@H]12` too.
Ans. 2.78

###

test system: HepG2; test: Cytotoxicity against human HepG2 cells assessed as cell survival after 48 hrs by MTT assay; type: functional, cell-based; conditions: HepG2, 48 h
pIC50: −log10 of the molar value.
readout: pIC50

Qu. Quick one: pIC50 of `C[C@H]1[C@H](C)CC[C@]2(C(=O)NCCCN(C)C)CC[C@]3(C)C(=CC[C@@H]4[C@@]5(C)Cc6c([nH]c7ccccc67)C(C)(C)[C@@H]5CC[C@]43C)[C@H]12` ?
Ans. 5.56

Qu. Cool, now `COC(=O)[C@]12CC[C@@H](C)[C@H](C)[C@H]1C1=CC[C@@H]3[C@@]4(C)Cc5c([nH]c6ccc(Cl)cc56)C(C)(C)[C@@H]4CC[C@@]3(C)[C@]1(C)CC2`
Ans. < 4.00

Qu. // query: `COC(=O)[C@]12CC[C@@H](C)[C@H](C)[C@H]1C1=CC[C@@H]3[C@@]4(C)Cc5c([nH]c6ccccc56)C(C)(C)[C@@H]4CC[C@@]3(C)[C@]1(C)CC2`
Ans. < 4.00

Qu. Next record, please: `C[C@H]1[C@H](C)CC[C@]2(C(=O)O)CC[C@]3(C)C(=CC[C@@H]4[C@@]5(C)CCC(=O)C(C)(C)[C@@H]5CC[C@]43C)[C@H]12`
Ans. < 4.00

Qu. `COC(=O)[C@]12CC[C@@H](C)[C@H](C)[C@H]1C1=CC[C@@H]3[C@@]4(C)Cc5c([nH]c6ccc(OC)cc56)C(C)(C)[C@@H]4CC[C@@]3(C)[C@]1(C)CC2` , same question.
Ans. < 4.00

Qu. Next: `C[C@H]1[C@H](C)CC[C@]2(C(=O)NCCCN(C)C)CC[C@]3(C)C(=CC[C@@H]4[C@@]5(C)Cc6c([nH]c7ccc(Cl)cc67)C(C)(C)[C@@H]5CC[C@]43C)[C@H]12`
Ans. 5.40

###

system: Pseudomonas fluorescens; assay: Antimicrobial activity against Pseudomonas fluorescens CGMCC1.1828 after 24 hrs by modified microdilution method; assay type: functional; conditions: CGMCC1.1828, 24 h
Assign MIC to each entry below.
Kindly provide the numeric value in µg/mL only, without the unit symbol.

Qu. Name the reported MIC value associated with the compound `COc1cccc2c3c([nH]c12)C(C)(C)[C@@H]1CC[C@]2(C)[C@H](CC=C4[C@@H]5[C@@H](C)[C@H](C)CC[C@]5(C(=O)NCCCN(C)C)CC[C@]42C)[C@@]1(C)C3`
Ans. 31.2

Qu. Record: `NCC[C@H](O)C(=O)N[C@@H]1C[C@H](N)[C@@H](O[C@H]2O[C@H](CN)[C@@H](O)[C@H](O)[C@H]2O)[C@H](O)[C@H]1O[C@H]1O[C@H](CO)[C@@H](O)[C@H](N)[C@H]1O`
Ans. 0.9

Qu. Same question, `COC(=O)[C@]12CC[C@@H](C)[C@H](C)[C@H]1C1=CC[C@@H]3[C@@]4(C)Cc5c([nH]c6ccc(F)cc56)C(C)(C)[C@@H]4CC[C@@]3(C)[C@]1(C)CC2` this time
Ans. 31.2

Qu. Another: `COc1cccc2c3c([nH]c12)C(C)(C)[C@@H]1CC[C@]2(C)[C@H](CC=C4[C@@H]5[C@@H](C)[C@H](C)CC[C@]5(C(=O)O)CC[C@]42C)[C@@]1(C)C3`
Ans. 62.5

Qu. Moving on to the next compound: `COC(=O)[C@]12CC[C@@H](C)[C@H](C)[C@H]1C1=CC[C@@H]3[C@@]4(C)Cc5c([nH]c6ccccc56)C(C)(C)[C@@H]4CC[C@@]3(C)[C@]1(C)CC2`
Ans. 62.5

Qu. `C[C@H]1[C@H](C)CC[C@]2(C(=O)O)CC[C@]3(C)C(=CC[C@@H]4[C@@]5(C)Cc6c([nH]c7ccc(Cl)cc67)C(C)(C)[C@@H]5CC[C@]43C)[C@H]12` ?
Ans. 31.2

###

tested on: HepG2; experiment: Cytotoxicity against human HepG2 cells assessed as cell survival after 48 hrs by MTT assay; assay type: functional, cell-based; settings: HepG2, 48 h
readout: pIC50
// pIC50: -log10(molar conc.)

Qu. Query (compound): `COc1cccc2c3c([nH]c12)C(C)(C)[C@@H]1CC[C@]2(C)[C@H](CC=C4[C@@H]5[C@@H](C)[C@H](C)CC[C@]5(C(=O)NCCCN(C)C)CC[C@]42C)[C@@]1(C)C3` ; field requested: pIC50
Ans. 4.05

Qu. Now the compound `C[C@H]1[C@H](C)CC[C@]2(C(=O)O)CC[C@]3(C)C(=CC[C@@H]4[C@@]5(C)Cc6c([nH]c7ccc(F)cc67)C(C)(C)[C@@H]5CC[C@]43C)[C@H]12`
Ans. 4.82

Qu. How about `CCOc1ccc2[nH]c3c(c2c1)C[C@]1(C)[C@H]2CC=C4[C@@H]5[C@@H](C)[C@H](C)CC[C@]5(C(=O)O)CC[C@@]4(C)[C@]2(C)CC[C@H]1C3(C)C` ?
Ans. 4.48

###

test system: Pseudomonas fluorescens; assay: Antimicrobial activity against Pseudomonas fluorescens CGMCC1.1828 after 24 hrs by modified microdilution method; type: functional; conditions: CGMCC1.1828, 24 h
readout: MIC (µg/mL)
# value in µg/mL; strip the unit string

Qu. What value of MIC has been recorded for this entry: `C[C@H]1[C@H](C)CC[C@]2(C(=O)O)CC[C@]3(C)C(=CC[C@@H]4[C@@]5(C)CCC(=O)C(C)(C)[C@@H]5CC[C@]43C)[C@H]12`
Ans. 62.5

Qu. Consider next the compound `COC(=O)[C@]12CC[C@@H](C)[C@H](C)[C@H]1C1=CC[C@@H]3[C@@]4(C)Cc5c([nH]c6ccc(Cl)cc56)C(C)(C)[C@@H]4CC[C@@]3(C)[C@]1(C)CC2` in the same way.
Ans. 62.5

Qu. // same read-out, input: `C[C@H]1[C@H](C)CC[C@]2(C(=O)NCCCN(C)C)CC[C@]3(C)C(=CC[C@@H]4[C@@]5(C)Cc6c([nH]c7ccc(Br)cc67)C(C)(C)[C@@H]5CC[C@]43C)[C@H]12`
Ans. 15.6

Qu. Could you do the same for `CCOc1ccc2[nH]c3c(c2c1)C[C@]1(C)[C@H]2CC=C4[C@@H]5[C@@H](C)[C@H](C)CC[C@]5(C(=O)NCCCN(C)C)CC[C@@]4(C)[C@]2(C)CC[C@H]1C3(C)C` , please?
Ans. 62.5

Qu. Now this one: `C[C@H]1[C@H](C)CC[C@]2(C(=O)NCCCN(C)C)CC[C@]3(C)C(=CC[C@@H]4[C@@]5(C)Cc6c([nH]c7ccc(Cl)cc67)C(C)(C)[C@@H]5CC[C@]43C)[C@H]12`
Ans. 31.2

Qu. Also need `COc1ccc2[nH]c3c(c2c1)C[C@]1(C)[C@H]2CC=C4[C@@H]5[C@@H](C)[C@H](C)CC[C@]5(C(=O)NCCCN(C)C)CC[C@@]4(C)[C@]2(C)CC[C@H]1C3(C)C` , thanks.
Ans. 31.2

Qu. Moving on to the next compound: `CCOc1ccc2[nH]c3c(c2c1)C[C@]1(C)[C@H]2CC=C4[C@@H]5[C@@H](C)[C@H](C)CC[C@]5(C(=O)O)CC[C@@]4(C)[C@]2(C)CC[C@H]1C3(C)C`
Ans. 62.5

Qu. Similarly, `Cc1ccc2[nH]c3c(c2c1)C[C@]1(C)[C@H]2CC=C4[C@@H]5[C@@H](C)[C@H](C)CC[C@]5(C(=O)O)CC[C@@]4(C)[C@]2(C)CC[C@H]1C3(C)C` ?
Ans. 62.5

Qu. // repeat for `CCOc1ccc2[nH]c3c(c2c1)C[C@]1(C)[C@H]2CC=C4[C@@H]5[C@@H](C)[C@H](C)CC[C@]5(C(=O)OC)CC[C@@]4(C)[C@]2(C)CC[C@H]1C3(C)C` and report
Ans. 62.5

###

Kindly supply the reported MIC values for the records listed here.
test system: Candida tropicalis; assay: Antimicrobial activity against Candida tropicalis CGMCC2.3967 after 48 hrs by modified microdilution method; type: functional; conditions: CGMCC2.3967, 48 h

Qu. For the molecule `CCOc1ccc2[nH]c3c(c2c1)C[C@]1(C)[C@H]2CC=C4[C@@H]5[C@@H](C)[C@H](C)CC[C@]5(C(=O)O)CC[C@@]4(C)[C@]2(C)CC[C@H]1C3(C)C` , what MIC is on record?
Ans. > 100 µg/mL

Qu. Also need `C[C@H]1[C@H](C)CC[C@]2(C(=O)NCCCN(C)C)CC[C@]3(C)C(=CC[C@@H]4[C@@]5(C)Cc6c([nH]c7ccc(F)cc67)C(C)(C)[C@@H]5CC[C@]43C)[C@H]12` , thanks.
Ans. 31.2 µg/mL

Qu. Consider next the molecule `COC(=O)[C@]12CC[C@@H](C)[C@H](C)[C@H]1C1=CC[C@@H]3[C@@]4(C)Cc5c([nH]c6ccc(C)cc56)C(C)(C)[C@@H]4CC[C@@]3(C)[C@]1(C)CC2` in the same way.
Ans. 62.5 µg/mL

Qu. Then `C[C@H]1[C@H](C)CC[C@]2(C(=O)O)CC[C@]3(C)C(=CC[C@@H]4[C@@]5(C)CCC(=O)C(C)(C)[C@@H]5CC[C@]43C)[C@H]12` ?
Ans. > 100 µg/mL

Qu. Ok, now `Cc1ccc2[nH]c3c(c2c1)C[C@]1(C)[C@H]2CC=C4[C@@H]5[C@@H](C)[C@H](C)CC[C@]5(C(=O)NCCCN(C)C)CC[C@@]4(C)[C@]2(C)CC[C@H]1C3(C)C`
Ans. > 100 µg/mL

Qu. Please do the same for `Cc1ccc2[nH]c3c(c2c1)C[C@]1(C)[C@H]2CC=C4[C@@H]5[C@@H](C)[C@H](C)CC[C@]5(C(=O)O)CC[C@@]4(C)[C@]2(C)CC[C@H]1C3(C)C` as well.
Ans. > 100 µg/mL

Qu. Next molecule: `C[C@H]1[C@H](C)CC[C@]2(C(=O)O)CC[C@]3(C)C(=CC[C@@H]4[C@@]5(C)Cc6c([nH]c7ccc(F)cc67)C(C)(C)[C@@H]5CC[C@]43C)[C@H]12`
Ans. > 100 µg/mL

Qu. Same thing, different molecule: `COC(=O)[C@]12CC[C@@H](C)[C@H](C)[C@H]1C1=CC[C@@H]3[C@@]4(C)Cc5c([nH]c6ccc(Cl)cc56)C(C)(C)[C@@H]4CC[C@@]3(C)[C@]1(C)CC2`
Ans. > 100 µg/mL

Qu. # iterate: `COC(=O)[C@]12CC[C@@H](C)[C@H](C)[C@H]1C1=CC[C@@H]3[C@@]4(C)Cc5c([nH]c6c(OC)cccc56)C(C)(C)[C@@H]4CC[C@@]3(C)[C@]1(C)CC2`
Ans. > 100 µg/mL

Qu. Can you handle `COC(=O)[C@]12CC[C@@H](C)[C@H](C)[C@H]1C1=CC[C@@H]3[C@@]4(C)Cc5c([nH]c6ccccc56)C(C)(C)[C@@H]4CC[C@@]3(C)[C@]1(C)CC2` next?
Ans. 62.5 µg/mL

Qu. Then this molecule: `CCOc1ccc2[nH]c3c(c2c1)C[C@]1(C)[C@H]2CC=C4[C@@H]5[C@@H](C)[C@H](C)CC[C@]5(C(=O)OC)CC[C@@]4(C)[C@]2(C)CC[C@H]1C3(C)C`
Ans. > 100 µg/mL
